All values here come from ChEMBL document CHEMBL1153775.

test: Cytotoxicity against human HSF cells assessed as growth inhibition at 0.17 mM after 24 hrs by spectrophotometer using BrdU labeling; format: cell-based; conditions: read-out: GI
Parameter: inhibition at 24 h, 170 µM
# answer = value followed by unit

Task: Value lookup for inhibition at 24 h, 170 µM; key = CCSc1n[nH]c(/C=C\C(=O)Nc2cccc(C)c2)n1
Result: 50%

----------
experiment: Cytotoxicity against human HSF cells assessed as growth inhibition at 0.32 mM after 48 hrs by spectrophotometer using BrdU labeling; type: cell-based; settings: read-out: GI
Parameter: inhibition at 48 h, 320 µM (%)
One number for each entry, in %.

Task: Give the measured inhibition at 48 h, 320 µM of CCSc1n[nH]c(/C=C\C(=O)Nc2ccccc2Cl)n1 .
Result: 50

----------
test: Cytotoxicity against human HSF cells assessed as growth inhibition at 0.14 mM after 72 hrs by spectrophotometer using BrdU labeling; format: cell-based; details: read-out: GI
Parameter: inhibition at 72 h, 140 µM (%)
Give bare numbers, in %.

Task: Can you share its inhibition at 72 h, 140 µM? I mean this compound: CCSc1n[nH]c(/C=C\C(=O)Nc2ccc(Br)cc2)n1
Result: 75

----------
experiment: Cytotoxicity against human HSF cells assessed as growth inhibition at 0.17 mM after 48 hrs by spectrophotometer using BrdU labeling; type: cell-based; conditions: read-out: GI
Parameter: inhibition at 48 h, 170 µM (%)
Answers are plain numbers, in %.

Task: May I ask what inhibition at 48 h, 170 µM has been recorded for CCSc1n[nH]c(/C=C\C(=O)Nc2cccc(C)c2)n1 ?
Result: 50

----------
experiment: Cytotoxicity against human HSF cells assessed as growth inhibition at 0.17 mM after 72 hrs by spectrophotometer using BrdU labeling; format: cell-based; details: read-out: GI
Parameter: inhibition at 72 h, 170 µM
# include the unit after the value

Task: Sample CCSc1n[nH]c(/C=C\C(=O)Nc2cccc(C)c2)n1 — what was its inhibition at 72 h, 170 µM?
Result: 50%

----------
assay: Cytotoxicity against human HSF cells assessed as growth inhibition at 0.35 mM after 48 hrs by spectrophotometer using BrdU labeling; assay type: cell-based; settings: read-out: GI
Parameter: inhibition at 48 h, 350 µM

Task: Can you look up the measured inhibition at 48 h, 350 µM of CCSc1n[nH]c(/C=C\C(=O)Nc2cccc(C)c2)n1 for me?
Result: 50%

----------
assay: Cytotoxicity against human HSF cells assessed as growth inhibition at 0.16 mM after 72 hrs by spectrophotometer using BrdU labeling; format: cell-based; settings: read-out: GI
Parameter: inhibition at 72 h, 160 µM (%)
Give bare numbers, in %.

Task: Tell me the measured inhibition at 72 h, 160 µM of CCSc1n[nH]c(/C=C\C(=O)Nc2ccccc2Cl)n1 , please.
Result: 0

----------
assay: Cytotoxicity against human HSF cells assessed as growth inhibition at 0.28 mM after 24 hrs by spectrophotometer using BrdU labeling; assay type: cell-based; conditions: read-out: GI
Parameter: inhibition at 24 h, 280 µM (%)
Numbers only, in %.

Task: Form field: reported inhibition at 24 h, 280 µM of CCSc1n[nH]c(/C=C\C(=O)Nc2ccc(Br)cc2)n1
Result: 75

----------
assay: Cytotoxicity against human HSF cells assessed as growth inhibition at 0.03 mM after 24 hrs by spectrophotometer using BrdU labeling; assay type: cell-based; conditions: read-out: GI
Parameter: inhibition at 24 h, 30 µM (%)
One number for each entry, in %.

[
  {
    "Chemical smiles": "CCSc1n[nH]c(/C=C\\C(=O)Nc2ccccc2Cl)n1",
    "Observed": 0
  }
]

Quick batch: inhibition at 24 h, 30 µM for everything below.
1. CCSc1n[nH]c(/C=C\C(=O)Nc2ccc(Br)cc2)n1
2. CCSc1n[nH]c(/C=C\C(=O)Nc2cccc(C)c2)n1

Result:
1. 0
2. 0

----------
assay: Cytotoxicity against human HSF cells assessed as growth inhibition at 0.14 mM after 48 hrs by spectrophotometer using BrdU labeling; type: cell-based; details: read-out: GI
Parameter: inhibition at 48 h, 140 µM (%)
Numbers only, in %.

Task: Data request, read-out inhibition at 48 h, 140 µM, for CCSc1n[nH]c(/C=C\C(=O)Nc2ccc(Br)cc2)n1
Result: 75

----------
assay: Cytotoxicity against human HSF cells assessed as growth inhibition at 0.14 mM after 24 hrs by spectrophotometer using BrdU labeling; format: cell-based; details: read-out: GI
Parameter: inhibition at 24 h, 140 µM (%)
Answers are plain numbers, in %.

Task: Quick one: inhibition at 24 h, 140 µM for CCSc1n[nH]c(/C=C\C(=O)Nc2ccc(Br)cc2)n1 ?
Result: 75

----------
assay: Cytotoxicity against human HSF cells assessed as growth inhibition at 0.28 mM after 72 hrs by spectrophotometer using BrdU labeling; assay type: cell-based; settings: read-out: GI
Parameter: inhibition at 72 h, 280 µM (%)
One number for each entry, in %.

Task: Look at this molecule and give its reported inhibition at 72 h, 280 µM. CCSc1n[nH]c(/C=C\C(=O)Nc2ccc(Br)cc2)n1
Result: 50
